Source of measurements: the RNAGym collection of RNA variant scans (doi:10.1073/pnas.2313332121)

B1: TPR t1 (parent)
chain: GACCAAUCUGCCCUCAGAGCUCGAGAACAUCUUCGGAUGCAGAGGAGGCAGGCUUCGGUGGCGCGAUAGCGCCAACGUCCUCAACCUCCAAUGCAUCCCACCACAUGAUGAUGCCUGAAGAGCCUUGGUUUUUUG

- Variants of: B1
- Test name: polymerase ribozyme fitness, log enrichment relative to wild type (log ratio); higher = more active; in vitro selection for triplet polymerase activity
Please enter Y where polymerase ribozyme fitness (log ratio) is greater than or equal to -3, and N where it is lower.

| Alteration | Class assignment |
| --- | --- |
| G10C G60U G135C | Y |
| C31U A50U C53U C72U G93A C124U | N |
| C88A G120U | Y |

Q: Could you tell me if the measured polymerase ribozyme fitness (log ratio) of U9A C13G A37G C82G U116C U125A reaches -3 or more?
Ans: N

Q: Could you tell me if the measured polymerase ribozyme fitness (log ratio) of A6G G60U U78C C104A U109A reaches -3 or more?
Ans: N

Q: Could you tell me if the measured polymerase ribozyme fitness (log ratio) of C13G G58U G60C reaches -3 or more?
Ans: Y
